Examples of molecules with documented IC50 follow.
- measurement-target: 6His-Tev-LRRK2 (1326-2527) (Homo sapiens)
- Construct: A LRRK2 cDNA encoding residues 1326-2527 was received from Dundee University; made in house; host or cells: Spodoptera frugiperda (Sf9) insect cells, baculovirus (pFB-HTb)
- experiment: LRRK2 AlphaScreen desensitised protein substrate assay
- Assay type: biochemical
- details: mean pIC50 of multiple test results; stated as threshold; read-out: pIC50 in the LRRK2 alphascreen desensitised protein substrate assay (bounds) (converted)

Q: Record Cc1cc(OCc2ccccc2)c(C(=O)Nc2cccnc2)cc1Br : what is its IC50 with 6His-Tev-LRRK2 (1326-2527) (Homo sapiens)?
A: ≤ 0.316 µM

Q: Record Cc1nocc1NC(=O)c1cc(-c2cnn(C)c2)c(CN2CCOCC2)cc1OCc1ccc(F)cc1F : what is its IC50 with 6His-Tev-LRRK2 (1326-2527) (Homo sapiens)?
A: ≤ 25.1 µM

Q: Record O=C(Nc1cccc(Cl)c1)c1cc(C(F)(F)F)c(CN2CCOCC2)cc1OCc1ccccc1 : what is its IC50 with 6His-Tev-LRRK2 (1326-2527) (Homo sapiens)?
A: > 25.1 µM

Q: Record O=C(Nc1cccnc1)c1cc(C(F)(F)F)c(C(=O)N2CCCCC2)cc1OCc1ccccc1 : what is its IC50 with 6His-Tev-LRRK2 (1326-2527) (Homo sapiens)?
A: ≤ 0.316 µM

Q: Record Cn1cc(-c2cc(OCc3ccc(F)cc3)c(C(=O)Nc3cccnc3)cc2C(=O)N2CCOCC2)cn1 : what is its IC50 with 6His-Tev-LRRK2 (1326-2527) (Homo sapiens)?
A: ≤ 25.1 µM

====

- measurement-target: 6His-Tev-LRRK2 (1326-2527) (Homo sapiens)
- Construct: A LRRK2 cDNA encoding residues 1326-2527 was received from Dundee University; made in house; host or cells: Spodoptera frugiperda (Sf9) insect cells, baculovirus (pFB-HTb)
- experiment: LRRK2 peptide substrate assay
- Format: biochemical
- details: mean pIC50 of multiple test results; stated as threshold; read-out: pIC50 in the LRRK2 peptide substrate assay (bounds) (converted)
value-type: IC50

Q: Given the molecule Cn1cc(-c2cc(OCc3ccc(F)cc3)c(C(=O)Nc3cccnc3)cc2C(=O)N2CCOCC2)cn1 , what is its reported IC50?
A: ≤ 1260 nM

Q: Given the molecule O=C(Nc1ccnnc1)c1cc(C(F)(F)F)c(C(=O)N2CCOCC2)cc1OCc1ccccc1 , what is its reported IC50?
A: ≤ 1260 nM

Q: Given the molecule Cc1nocc1NC(=O)c1cc(-c2cnn(C)c2)c(CN2CCOCC2)cc1OCc1ccc(F)cc1 , what is its reported IC50?
A: ≤ 100 nM

Proceed to the following item.
Q: Given the molecule Cc1cc(OCc2ccccc2)c(C(=O)Nc2ccnnc2)cc1-c1cnn(C)c1 , what is its reported IC50?
A: ≤ 100 nM

====

Examples of compounds with documented IC50 follow.
- measurement-target: 6His-Tev-LRRK2 (1326-2527) (Homo sapiens, UniProt Q5S007)
- Construct: A LRRK2 cDNA encoding residues 1326-2527 was received from Dundee University; made in house; host or cells: Spodoptera frugiperda (Sf9) insect cells, baculovirus (pFB-HTb)
- Sequence (Q5S007 1326-2527): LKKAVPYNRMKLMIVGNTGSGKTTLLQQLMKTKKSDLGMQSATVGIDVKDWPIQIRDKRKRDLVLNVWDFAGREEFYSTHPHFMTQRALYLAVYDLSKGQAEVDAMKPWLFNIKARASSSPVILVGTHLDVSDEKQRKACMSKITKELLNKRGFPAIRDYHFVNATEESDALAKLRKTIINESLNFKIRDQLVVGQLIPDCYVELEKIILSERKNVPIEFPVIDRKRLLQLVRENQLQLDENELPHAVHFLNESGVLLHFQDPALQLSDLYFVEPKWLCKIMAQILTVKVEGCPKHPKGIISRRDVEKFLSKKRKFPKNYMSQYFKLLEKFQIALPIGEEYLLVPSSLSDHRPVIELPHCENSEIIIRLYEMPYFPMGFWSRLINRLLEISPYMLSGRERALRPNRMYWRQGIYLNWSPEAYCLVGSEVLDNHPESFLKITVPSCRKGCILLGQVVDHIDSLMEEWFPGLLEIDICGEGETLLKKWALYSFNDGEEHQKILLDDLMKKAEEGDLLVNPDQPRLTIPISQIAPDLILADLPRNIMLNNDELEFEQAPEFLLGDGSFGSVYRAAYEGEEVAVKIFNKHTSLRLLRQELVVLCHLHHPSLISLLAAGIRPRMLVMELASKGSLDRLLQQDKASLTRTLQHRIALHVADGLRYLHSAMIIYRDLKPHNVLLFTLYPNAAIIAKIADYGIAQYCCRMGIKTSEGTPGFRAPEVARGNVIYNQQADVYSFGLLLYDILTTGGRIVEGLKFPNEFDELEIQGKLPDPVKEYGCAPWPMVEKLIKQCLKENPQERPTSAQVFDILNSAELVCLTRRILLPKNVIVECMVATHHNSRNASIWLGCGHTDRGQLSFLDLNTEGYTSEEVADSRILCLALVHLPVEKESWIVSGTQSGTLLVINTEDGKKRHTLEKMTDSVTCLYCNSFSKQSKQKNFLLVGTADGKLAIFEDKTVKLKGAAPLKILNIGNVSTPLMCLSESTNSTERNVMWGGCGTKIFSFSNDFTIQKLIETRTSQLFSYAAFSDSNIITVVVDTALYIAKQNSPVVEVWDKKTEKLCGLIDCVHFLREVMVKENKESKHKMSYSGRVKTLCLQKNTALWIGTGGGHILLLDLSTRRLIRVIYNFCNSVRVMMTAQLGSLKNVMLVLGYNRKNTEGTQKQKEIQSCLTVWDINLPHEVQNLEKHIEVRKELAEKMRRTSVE
- experiment: LRRK2 AlphaScreen desensitised protein substrate assay
- Assay type: biochemical
- details: mean pIC50 of multiple test results; stated as threshold; read-out: pIC50 in the LRRK2 alphascreen desensitised protein substrate assay (bounds) (converted)
- Experimental: Compounds of formula (I) may be tested for in vitro kinase activity in accordance with the following assays, using the non natural, in vitro, substrates moesin and the Longer Biotin-LRRKtide. […] b) 3 μl enzyme solution (80 nM purified recombinant 6His-Tev-LRRK2 (1326-2527) in assay buffer: 50 mM Hepes (pH 7.2), 10 mM MgCl2, 150 mM NaCl, 5% glycerol, 0.0025% triton X-100 and 1 mM DTT) is added to certain wells. […] Data is analysed using ActivityBase software (IDBS). […]

Q: Record Cn1cc(-c2cc(C(=O)Nc3ccnnc3)c(OCc3ccc(F)cc3)cc2C(=O)N2CCOCC2)cn1 : what is its IC50 with 6His-Tev-LRRK2 (1326-2527) (Homo sapiens, UniProt Q5S007)?
A: ≤ 25.1 µM

Q: Record Cn1cc(-c2cc(C(=O)Nc3cccnc3)c(OCc3ccccc3)cc2CN2CCOCC2)cn1 : what is its IC50 with 6His-Tev-LRRK2 (1326-2527) (Homo sapiens, UniProt Q5S007)?
A: ≤ 0.316 µM

Q: Record Cn1cc(-c2cc(C(=O)Nc3cccnc3)c(OCc3ccc(F)cc3F)cc2CN2CCOCC2)cn1 : what is its IC50 with 6His-Tev-LRRK2 (1326-2527) (Homo sapiens, UniProt Q5S007)?
A: ≤ 0.316 µM

Q: Record Cc1cc(OCc2ccccc2)c(C(=O)Nc2ccnnc2)cc1-c1cnn(C)c1 : what is its IC50 with 6His-Tev-LRRK2 (1326-2527) (Homo sapiens, UniProt Q5S007)?
A: ≤ 25.1 µM

Q: Record Cn1cc(-c2cc(C(=O)Nc3cccnc3)c(OCc3ccccc3)cc2C(=O)N2CCCCC2)cn1 : what is its IC50 with 6His-Tev-LRRK2 (1326-2527) (Homo sapiens, UniProt Q5S007)?
A: ≤ 0.316 µM

Others:
Q: Record Cc1nocc1NC(=O)c1cc(-c2cnn(C)c2)c(C(=O)N2CCOCC2)cc1OCc1ccccc1 : what is its IC50 with 6His-Tev-LRRK2 (1326-2527) (Homo sapiens, UniProt Q5S007)?
A: ≤ 25.1 µM

Q: Record CN(C)C(=O)c1cc(OCc2ccccc2)c(C(=O)Nc2cccnc2)cc1-c1cnn(C)c1 : what is its IC50 with 6His-Tev-LRRK2 (1326-2527) (Homo sapiens, UniProt Q5S007)?
A: ≤ 0.316 µM

Q: Record Cc1nocc1NC(=O)c1cc(Cl)c(C(=O)N2CCC(F)(F)C2)cc1OCc1ccccc1 : what is its IC50 with 6His-Tev-LRRK2 (1326-2527) (Homo sapiens, UniProt Q5S007)?
A: ≤ 25.1 µM
